Origin of the recorded values: paper PMC10786891

# measured on: T1, EsCas13d, nuclease-dead (Eubacterium siraeum, UniProt B0MS50, R295A;H300A;R849A;H854A)
# T1 sequence: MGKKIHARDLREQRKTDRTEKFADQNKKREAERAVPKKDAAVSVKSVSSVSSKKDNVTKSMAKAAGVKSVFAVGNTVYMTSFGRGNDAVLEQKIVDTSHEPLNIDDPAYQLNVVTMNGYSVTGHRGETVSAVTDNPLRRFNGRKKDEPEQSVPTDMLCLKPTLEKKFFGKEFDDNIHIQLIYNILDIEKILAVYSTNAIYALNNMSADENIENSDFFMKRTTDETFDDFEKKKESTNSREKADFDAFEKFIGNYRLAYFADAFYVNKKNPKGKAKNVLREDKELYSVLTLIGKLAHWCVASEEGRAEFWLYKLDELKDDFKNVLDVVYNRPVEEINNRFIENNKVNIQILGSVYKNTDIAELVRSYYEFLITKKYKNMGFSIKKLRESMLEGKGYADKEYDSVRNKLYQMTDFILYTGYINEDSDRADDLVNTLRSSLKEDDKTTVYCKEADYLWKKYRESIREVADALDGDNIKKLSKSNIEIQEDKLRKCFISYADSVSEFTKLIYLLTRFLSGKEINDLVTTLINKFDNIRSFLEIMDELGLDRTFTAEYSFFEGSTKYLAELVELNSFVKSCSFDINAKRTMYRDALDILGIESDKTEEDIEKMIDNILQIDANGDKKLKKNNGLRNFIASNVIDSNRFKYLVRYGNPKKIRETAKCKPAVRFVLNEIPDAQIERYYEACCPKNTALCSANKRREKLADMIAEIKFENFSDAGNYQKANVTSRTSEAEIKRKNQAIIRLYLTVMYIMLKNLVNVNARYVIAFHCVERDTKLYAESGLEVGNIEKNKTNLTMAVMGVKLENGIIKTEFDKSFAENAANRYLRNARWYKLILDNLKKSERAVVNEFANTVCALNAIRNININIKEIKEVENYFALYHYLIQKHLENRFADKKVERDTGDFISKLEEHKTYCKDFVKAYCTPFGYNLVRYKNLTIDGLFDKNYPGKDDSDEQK
# measurement description: crRNA (strand 1, pre-loaded); Mg2+; 40 mM Tris-HCl pH 7.5, 150 mM NaCl, 6 mM MgCl2, 1 mM DTT, 0.1% Tween-20, 0.2 mg/ml BSA; 25 C; 10 min per concentration, then washed
# condition label: tags: His6-TwinStrep-SUMO cleaved; N-terminal SNAP kept (SNAP-Surface 488); label: 3' end held by stalled T7 RNA polymerase
Let's look at some binders and their measured Kd.

- binder: "target 1 C2G,A9G (mixed) RNA 1: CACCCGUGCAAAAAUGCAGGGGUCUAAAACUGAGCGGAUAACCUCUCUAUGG RNA 2: GGGAAUGGAUCCACAUCUACGAAUUCGUACCAUAGAGAGGUUGUCCGCUGACCGAGAUCGGAAGAGCACACGU"
  Kd (nM): 9.1
- binder: "target 1 insG 3' of 16,insC 3' of 15 (mixed) RNA 1: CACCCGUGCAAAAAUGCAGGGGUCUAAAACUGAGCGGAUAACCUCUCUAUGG RNA 2: GGGAAUGGAUCCACAUCUACGAAUUCGUACCAUAGAGGCAGGUUAUCCGCUCACCGAGAUCGGAAGAGCACACGU"
  Kd (nM): 28.8
- binder: "target 3 insU 3' of 9,insC 3' of 7 (mixed) RNA 1: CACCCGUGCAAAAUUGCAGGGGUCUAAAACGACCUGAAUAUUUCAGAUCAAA RNA 2: GGGAAUGGAUCCACAUCUACGAAUUCGUUUUUGAUCUGAAAUAUUUCCAGGUCUGCAGAUCGGAAGAGCACACGU"
  Kd (nM): 100
- binder: "target 1 C4G,C21U (mixed) RNA 1: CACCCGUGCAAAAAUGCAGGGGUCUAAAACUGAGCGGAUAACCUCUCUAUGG RNA 2: GGGAAUGGAUCCACAUCUACGAAUUCGUACUAUAGAGAGGUUAUCCGGUCACCGAGAUCGGAAGAGCACACGU"
  Kd (nM): 3.5
